# assay name: Plasma stability assay (LC-MS/MS)
# Type: in vitro ADME
# run conditions: human plasma, 37° C., 3 μM
Counter-ions that a name gives are not always drawn.
measurement type: Plasma t1/2

Could you tell me Plasma t1/2 for each of these compounds? They are listed below.
1. C/C(=N\OC(=O)NCCN)[C@H]1CC[C@H]2[C@@H]3CCC4=CC(=O)CC[C@]4(C)[C@H]3CC[C@]12C [32a, hydrochloride]
2. CNCCCN(C)C(=O)O/N=C(\C)[C@H]1CC[C@H]2[C@@H]3CCC4=CC(=O)CC[C@]4(C)[C@H]3CC[C@]12C.Cl
3. C/C(=N\OC(=O)NCCN(C)C)[C@H]1CC[C@H]2[C@@H]3CCC4=CC(=O)CC[C@]4(C)[C@H]3CC[C@]12C.Cl

(A)
1. >2 h
2. >4 h
3. >3.5 h

Origin of values: patent US20250034200A1
